- System: rodent lifetime carcinogenesis bioassay, tumor incidence TD50
- protocol_text: carcinogenic potency in animals, long-term in vivo studies, CPDB compilation (AID 1745844)
- assay_conditions: rat; strain Fischer 344; males; in drinking water; site: central nervous system; lesion: glial tumors (oligodendroglioma and astrocytoma); dosed 104 weeks; study length 104 weeks
quantity: TD50

Request: Endpoint output: TD50 of `C=CC(N)=O` . Value?
Result: 24.8 mg/kg/day

====

- System: rodent lifetime carcinogenesis bioassay, tumor incidence TD50
- protocol_text: carcinogenic potency in animals, long-term in vivo studies, CPDB compilation (AID 1745844)
- assay_conditions: rat; strain Fischer 344; males; inhaled; site: subcutaneous tissue; lesion: fibroma; dosed 102 weeks; study length 104 weeks
quantity: TD50
Phrase the answer as number then unit, nothing more needed.

Request: Name the reported TD50 value associated with the compound `ClCCl`
Result: 2180 mg/kg/day

====

- System: rodent lifetime carcinogenesis bioassay, tumor incidence TD50
- protocol_text: carcinogenic potency in animals, long-term in vivo studies, CPDB compilation (AID 1745844)
- assay_conditions: rat; strain Donryu; males; in drinking water; site: liver; lesion: several types; types named in the paper; dosed 41 weeks; study length 91 weeks
quantity: TD50

Request: For `NC(=O)Cc1c([O-])on[n+]1Cc1ccccc1` , what is its reported TD50?
Result: 4.24 mg/kg/day

====

- Test system: rodent lifetime carcinogenesis bioassay, tumor incidence TD50
- protocol_text: carcinogenic potency in animals, long-term in vivo studies, CPDB compilation (AID 1745844)
- assay_conditions: rat; strain F344/DuCrj; males; in feed; site: large intestine; lesion: adenocarcinoma; dosed 55 weeks; study length 55 weeks
quantity: TD50

Request: # TD50 lookup, item `Cn1c(N)nc2c3cccnc3ccc21`
Result: 2.34 mg/kg/day

====

- System: rodent lifetime carcinogenesis bioassay, tumor incidence TD50
- protocol_text: carcinogenic potency in animals, long-term in vivo studies, CPDB compilation (AID 1745844)
- assay_conditions: mouse; strain Charles River CD1; females; in feed; site: any site (literature study); lesion: several types; types named in the paper; dosed 78 weeks; study length 92 weeks
Active and inactive are the calls of the source. How the calls were made is not given here.
quantity: TD50

Request: Consider the compound CC(C)NCC(O)c1ccc(NS(C)(=O)=O)cc1 (stereo unspecified) and give its measured TD50.
Result: 1910 mg/kg/day (inactive)

====

- Tested on: rodent lifetime carcinogenesis bioassay, tumor incidence TD50
- protocol_text: carcinogenic potency in animals, long-term in vivo studies, CPDB compilation (AID 1745844)
- assay_conditions: mouse; strain B6C3F1; males; in drinking water; site: lung; lesion: several types; types named in the paper; dosed 85 weeks; study length 85 weeks
quantity: TD50 (mg/kg/day)
Numbers only; they are read as mg/kg/day.

Request: Would you mind telling me what TD50 value was observed for `[O-][Cl+]O` ?
Result: 237

====

- Tested on: rodent lifetime carcinogenesis bioassay, tumor incidence TD50
- protocol_text: carcinogenic potency in animals, long-term in vivo studies, CPDB compilation (AID 1745844)
- assay_conditions: rat; strain Charles River CD (Sprague-Dawley); males; in feed; site: liver; lesion: several types; types named in the paper; dosed 104 weeks; study length 104 weeks
Activity calls are given as the source filed them. The rule behind the calls is not given here.
Kindly state TD50 for each of the entries shown.

Request: Give its TD50 value. Item: `O=[N+]([O-])OCC(CO[N+](=O)[O-])O[N+](=O)[O-]`
Result: 221 mg/kg/day

Request: Further, for `O=P(OC(CCl)CCl)(OC(CCl)CCl)OC(CCl)CCl` ?
Result: 144 mg/kg/day

Request: And for `NC(=O)OCC(COC(N)=O)c1ccccc1` ?
Result: 9780 mg/kg/day

Request: Check `CN1CCCC1=O` too.
Result: 58500 mg/kg/day (inactive)

====

- System: rodent lifetime carcinogenesis bioassay, tumor incidence TD50
- protocol_text: carcinogenic potency in animals, long-term in vivo studies, CPDB compilation (AID 1745844)
- assay_conditions: mouse; strain B6C3F1; males; inhaled; site: Harderian gland; lesion: adenocarcinoma + adenocarcinoma, bilateral; dosed 13 weeks; study length 104 weeks
quantity: TD50 (mg/kg/day)
The figure you give is taken to be in mg/kg/day; do not add the unit.

Request: Checklist item: TD50 tested on rodent lifetime carcinogenesis bioassay, tumor incidence TD50, entry `C=CC=C` , value?
Result: 63.5

====

- Test system: rodent lifetime carcinogenesis bioassay, tumor incidence TD50
- protocol_text: carcinogenic potency in animals, long-term in vivo studies, CPDB compilation (AID 1745844)
- assay_conditions: rat; strain Bethesda black; both sexes; in feed; site: liver; lesion: nodular hyperplasia; dosed 104 weeks; study length 104 weeks
quantity: TD50 (mg/kg/day)
Please reply with the bare figure in mg/kg/day and do not write the unit itself.

Request: # query: TD50 | item `Cc1cc(C)c(N=Nc2c(O)c(S(=O)(=O)O)cc3cc(S(=O)(=O)O)ccc23)cc1C` | system: rodent lifetime carcinogenesis bioassay, tumor incidence TD50
Result: 3040

====

- Test system: rodent lifetime carcinogenesis bioassay, tumor incidence TD50
- protocol_text: carcinogenic potency in animals, long-term in vivo studies, CPDB compilation (AID 1745844)
- assay_conditions: mouse; strain B6C3F1; females; by gavage; site: any site (literature study); lesion: several types; types named in the paper; dosed 78 weeks; study length 91 weeks
quantity: TD50
# number then unit; no other words

Request: I have this compound here, `C=CCCl` , and I need its recorded TD50.
Result: 343 mg/kg/day

Request: Same lookup for `C=Cc1ccccc1` , please.
Result: 625 mg/kg/day

====

- Test system: rodent lifetime carcinogenesis bioassay, tumor incidence TD50
- protocol_text: carcinogenic potency in animals, long-term in vivo studies, CPDB compilation (AID 1745844)
- assay_conditions: mouse; strain Swiss; females; in drinking water; site: uterus; lesion: leiomyosarcoma; dosed 78 weeks; study length 151 weeks
quantity: TD50 (mg/kg/day)
Give a bare numeral; the unit mg/kg/day is implied.

Request: What value of measured TD50 is listed for `C=COC(C)=O` ?
Result: 26100

====

- Test system: rodent lifetime carcinogenesis bioassay, tumor incidence TD50
- protocol_text: carcinogenic potency in animals, long-term in vivo studies, CPDB compilation (AID 1745844)
- assay_conditions: mouse; strain B6C3F1; females; inhaled; site: liver; lesion: hepatocellular adenoma; dosed 83 weeks; study length 104 weeks
quantity: TD50 (mg/kg/day)
The response must be a number in mg/kg/day with no trailing unit.

Request: TD50 lookup needed for `C=CC=C` , thanks.
Result: 28.5

====

- Tested on: rodent lifetime carcinogenesis bioassay, tumor incidence TD50
- protocol_text: carcinogenic potency in animals, long-term in vivo studies, CPDB compilation (AID 1745844)
- assay_conditions: rat; strain Sprague-Dawley; females; in feed; site: any site (literature study); lesion: several types; types named in the paper; dosed 75 weeks; study length 80 weeks
Activity calls are given as the source filed them. How the calls were made is not given here.
quantity: TD50

Request: Dear colleague, I am looking for the recorded TD50 of the following molecule: `O=C1CN(N=Cc2ccc([N+](=O)[O-])o2)C(=O)N1`
Result: 185 mg/kg/day (inactive)

====

- Test system: rodent lifetime carcinogenesis bioassay, tumor incidence TD50
- protocol_text: carcinogenic potency in animals, long-term in vivo studies, CPDB compilation (AID 1745844)
- assay_conditions: rat; strain Fischer 344; males; in drinking water; site: lung; lesion: alveolar/bronchiolar adenoma + alveolar/bronchiolar carcinoma; dosed 58 weeks; study length 60 weeks
quantity: TD50

Request: Need TD50 of `Cc1cc(-c2ccc(N)c(C)c2)ccc1N` , thanks.
Result: 4.93 mg/kg/day

====

- Tested on: rodent lifetime carcinogenesis bioassay, tumor incidence TD50
- protocol_text: carcinogenic potency in animals, long-term in vivo studies, CPDB compilation (AID 1745844)
- assay_conditions: mouse; strain B6C3F1; females; inhaled; site: lung; lesion: alveolar/bronchiolar adenoma; dosed 102 weeks; study length 104 weeks
Assign TD50 to each entry below.

Request: // lookup TD50 | system=rodent lifetime carcinogenesis bioassay, tumor incidence TD50 | key= `C1CO1`
Result: 87.5 mg/kg/day

Request: Subsequent entry: `ClCCl`
Result: 1420 mg/kg/day

====

- Test system: rodent lifetime carcinogenesis bioassay, tumor incidence TD50
- protocol_text: carcinogenic potency in animals, long-term in vivo studies, CPDB compilation (AID 1745844)
- assay_conditions: mouse; strain Swiss albino; females; in drinking water; site: lung; lesion: one or several types; types not named; dosed 139 weeks; study length 139 weeks
Calls of active or inactive are those of the source. No rule for the calls is given here.
quantity: TD50

Request: Item `O=C(O)c1cccnc1` has what recorded TD50?
Result: 17000 mg/kg/day (inactive)

====

- System: rodent lifetime carcinogenesis bioassay, tumor incidence TD50
- protocol_text: carcinogenic potency in animals, long-term in vivo studies, CPDB compilation (AID 1745844)
- assay_conditions: mouse; strain Charles River CD1; females; in feed; site: liver; lesion: nodular hyperplasia; dosed 78 weeks; study length 78 weeks
quantity: TD50 (mg/kg/day)
Unit mg/kg/day implied. Number only.

Request: Which measured TD50 belongs to ClC1=C(Cl)C2(Cl)C3C(Cl)C(Cl)CC3C1(Cl)C2(Cl)Cl (stereo unspecified) , tested on rodent lifetime carcinogenesis bioassay, tumor incidence TD50?
Result: 1.78
